Field: fold repression. Provide a value for each of the binders that follow.
Target: T1, ECF16_973
T1 chain: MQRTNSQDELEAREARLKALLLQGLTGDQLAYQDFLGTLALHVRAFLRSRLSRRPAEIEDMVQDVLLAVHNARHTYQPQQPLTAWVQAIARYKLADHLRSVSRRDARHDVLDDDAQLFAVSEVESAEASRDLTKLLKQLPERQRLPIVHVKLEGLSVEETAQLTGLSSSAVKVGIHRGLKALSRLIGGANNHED
Simply state the number, no unit and no words.

[in] Read the entry AS16_3622 (protein) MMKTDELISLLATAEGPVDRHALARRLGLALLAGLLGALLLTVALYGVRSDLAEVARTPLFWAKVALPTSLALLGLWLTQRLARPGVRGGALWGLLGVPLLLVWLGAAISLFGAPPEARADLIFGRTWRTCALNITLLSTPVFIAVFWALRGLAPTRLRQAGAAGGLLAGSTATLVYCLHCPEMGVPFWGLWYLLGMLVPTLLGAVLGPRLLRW and write its reported fold repression.
[out] 131

[in] Input AS03_1198 (protein) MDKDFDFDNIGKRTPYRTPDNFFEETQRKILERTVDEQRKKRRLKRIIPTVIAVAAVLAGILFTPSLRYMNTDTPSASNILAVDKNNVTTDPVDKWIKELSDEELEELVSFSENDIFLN , output reported fold repression.
[out] 1.49

[in] Please give measured fold repression of the following entry: AS11_987 (protein) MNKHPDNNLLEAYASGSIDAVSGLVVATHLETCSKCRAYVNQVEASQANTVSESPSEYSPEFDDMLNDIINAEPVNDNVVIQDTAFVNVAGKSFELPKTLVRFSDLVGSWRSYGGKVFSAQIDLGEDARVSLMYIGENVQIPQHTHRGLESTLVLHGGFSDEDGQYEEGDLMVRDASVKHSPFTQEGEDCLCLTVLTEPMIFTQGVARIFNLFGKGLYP
[out] 2.76

[in] Check the records and state fold repression for AS01_3473 (protein) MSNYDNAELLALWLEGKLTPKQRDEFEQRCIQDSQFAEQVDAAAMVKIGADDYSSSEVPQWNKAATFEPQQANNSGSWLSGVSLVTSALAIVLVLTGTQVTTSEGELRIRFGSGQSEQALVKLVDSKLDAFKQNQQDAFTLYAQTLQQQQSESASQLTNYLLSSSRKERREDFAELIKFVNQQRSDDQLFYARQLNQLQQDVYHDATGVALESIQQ
[out] 1.49
